experiment: in vitro; conditions: NMRI, mouse, liver microsomes
Metric: log10 microsomal CLint at 1 µM (log10 of the value in µL/min/mg)
On a log10 scale: recorded microsomal CLint at 1 µM, unit µL/min/mg.

Solved entries (count: 8):
Clc1ccc2c(c1)CCCc1nnc(C3CCN(c4ccccn4)CC3)n1-2 : 2.06
COc1nc2cc(Cl)ccc2n2c(C3CCN(c4ccccn4)CC3)nnc12 : 2.06
COC(=O)CC1Cc2cc(Cl)ccc2-n2c1nnc2[C@H]1CC[C@H](Oc2ccccn2)CC1 (some centres undefined) : 2.57
Clc1ccc2c(c1)CCc1nnc(C3CCN(c4ccccn4)CC3)n1-2 : 1.56
Cc1cc([C@H]2CC[C@H](c3nnc4n3-c3ccccc3CCC4)CC2)no1 : 2.06
Cc1cc([C@H]2CC[C@H](c3nnc4n3-c3ccc(Cl)cc3CC4)CC2)no1 : 1.11
Cc1cc([C@H]2CC[C@H](c3nnc4n3-c3ccc(Cl)cc3C3CC43)CC2)no1 (mixture of isomers) : 0.48
c1ccc(O[C@H]2CC[C@H](c3nnc4n3-c3ccccc3CCC4)CC2)nc1 : 2.27

Return reported log10 microsomal CLint at 1 µM. Input molecule: `c1ccc(N2CCC(c3nnc4n3-c3ccccc3CCC4)CC2)nc1`
2.21

Return reported log10 microsomal CLint at 1 µM. Input molecule: `Brc1ccc2c(c1)CCCc1nnc([C@H]3CC[C@H](Oc4ccccn4)CC3)n1-2`
1.95

Return reported log10 microsomal CLint at 1 µM. Input molecule: `Brc1ccc2c(c1)CCCc1nnc(C3CCN(c4ccccn4)CC3)n1-2`
1.70

Return reported log10 microsomal CLint at 1 µM. Input molecule: `Cc1cc([C@H]2CC[C@H](c3nnc4n3-c3ccc(Cl)cc3CCC4)CC2)no1`
1.58

Return reported log10 microsomal CLint at 1 µM. Input molecule: `Cc1ccccc1N1CCN(C(=O)N2C[C@@H](C(=O)N3CCCC3)Cc3cc(Cl)ccc32)CC1`
2.37

Return reported log10 microsomal CLint at 1 µM. Input molecule: `C#Cc1ccc2c(c1)CCCc1nnc(C3CCN(c4ccccn4)CC3)n1-2`
2.06

The values you see were collected from ChEMBL document CHEMBL4665717.
